Values were extracted from ChEMBL document CHEMBL4706591.

Target: Alpha-synuclein (Homo sapiens) (UniProt P37840)
Assay: Inhibition of recombinant alpha-synuclein (unknown origin) aggregation expressed in Escherichia coli BL21 (DE3) cells assessed as final plateau fluorescence at 1:1 compound-protein molar ratio measured for every 30 mins in presence of ThT by spectrofluorometry relative to control
metric: inhibition

Consider the reported inhibition for these molecules:
| smilesRecord | inhibition |
| --- | --- |
| Cc1ccc(S(=O)(=O)N2CCN(C(=O)CSc3nnc(-c4ccccc4)c(-c4ccccc4)n3)CC2)cc1 | < 40% |
| CC(=O)Nc1ccc(S(=O)(=O)N2CCN(C(=O)CSc3nnc(-c4ccccc4)c(-c4ccccc4)n3)CC2)cc1F | > 50% |
| O=C(CSc1nnc(-c2ccccc2)c(-c2ccccc2)n1)N1CCN(S(=O)(=O)c2ccccc2[N+](=O)[O-])CC1 | < 40% |
| O=C(CSc1nnc(-c2ccccc2)c(-c2ccccc2)n1)N1CCN(S(=O)(=O)c2ccc(Br)cc2)CC1 | < 40% |
| O=C(CSc1nnc(-c2ccccc2)c(-c2ccccc2)n1)N1CCN(c2ccnc3cc(Cl)ccc23)CC1 | > 50% |

Next:
Query :: inhibition for CC(=O)Nc1ccc(S(=O)(=O)N2CCN(C(=O)CSc3nnc(-c4ccccc4)c(-c4ccccc4)n3)CC2)cc1 ?
Result :: > 50%
